test system: CD2F1 mice, L1210 leukemia ip, survival T/C; assay: NCI In Vivo Anticancer Drug Screen. Data for tumor model L1210 Leukemia (intraperitoneal) in CD2F1 (CDF1) mice; conditions: endpoint: mean survival time; dose: 12.5 mg/kg/injection; schedule: Q04DX002 (ip); vehicle: saline with Tween-80; higher = longer survival
Toxic doses and inconclusive results are not listed.
Measurement Type: T/C

CC1CCSCS1 (configuration not stated)    97 % of control
O=C(CCC(=O)Nc1ccc(S(=O)(=O)NCCO)cc1)Nc1ccc(S(=O)(=O)NCCO)cc1    96 % of control
COc1ccc(C(=O)C(Br)Br)cc1OC    100 % of control
CCCCCCCCCCCCCCC(=O)Nc1ccccc1    101 % of control
CCCCCCCCCCCCCCCC[N+](C)(C)CC#CCCl    88 % of control
CC(=O)OC1(c2cc(C(F)(F)F)cc(C(F)(F)F)c2)C2CCC1CC2 (configuration not stated)    101 % of control

Read the next record carefully.
For CCC12CCCN=C1c1c([nH]c3ccccc13)CC2 (configuration not stated) , what is its reported T/C?
104 % of control

----------
system: CD2F1 mice, L1210 leukemia ip, survival T/C; assay: NCI In Vivo Anticancer Drug Screen. Data for tumor model L1210 Leukemia (intraperitoneal) in CD2F1 (CDF1) mice; details: endpoint: mean survival time; dose: 50.0 mg/kg/injection; schedule: Q01DX009 (ip); vehicle: Klucel (hydroxypropylcellulose) (HPC); higher = longer survival
Toxic doses and inconclusive results are not listed.
Measurement Type: T/C

Take a look at these entries with their results.
CCN(CC)Cc1cc(Nc2cc(C)nc(/N=C(\N)Nc3cc(Cl)cc(Cl)c3)n2)ccc1O    105 % of control
O=C(Nc1ccc(C(=O)O)cc1)Nc1ccc(F)c(Cl)c1    109 % of control
CCCCOC(=O)c1ccc(NC(=O)Nc2cc([N+](=O)[O-])ccc2C)cc1    101 % of control
Cc1ccc2c(c1)-c1[nH]c3ccccc3c1CS2    109 % of control
O=C(CCOP(=O)(N(CCCl)CCCl)N1CC1)OCc1ccccc1 (centres undefined)    94 % of control

For CCCC(=O)Nc1ccc(O)cc1 , what is its reported T/C?
95 % of control

For CC(=O)Nc1ccc(S(N)(=O)=O)cc1 , what is its reported T/C?
95 % of control

For OCC1OC([Se])C(O)C(O)C1O.[CH3][Sb][CH3] (centres undefined) , what is its reported T/C?
88 % of control

For O=C(CCl)Nc1ccc(SSc2ccc(NC(=O)CCl)cc2)cc1 , what is its reported T/C?
96 % of control

----------
tested on: CD2F1 mice, L1210 leukemia ip, survival T/C; assay: NCI In Vivo Anticancer Drug Screen. Data for tumor model L1210 Leukemia (intraperitoneal) in CD2F1 (CDF1) mice; settings: endpoint: mean survival time; dose: 100.0 mg/kg/injection; schedule: Q04DX003 (ip); vehicle: saline with Tween-80; higher = longer survival
Inconclusive results and toxic doses are left out.
Measurement Type: T/C

Take a look at these entries with their results.
CCN(CC)CCNc1cc(C)nc(/N=C(\N)Nc2ccc(Br)c(C(F)(F)F)c2)n1    98 % of control
c1cc2c3c(cccc3c1)N=S=N2    89 % of control
CCOc1ccnc(OCC)n1    105 % of control
COc1ccc(OC)c(CCN)c1    108 % of control

For COC(=O)c1cc2ccccc2o1 , what is its reported T/C?
108 % of control

For CC1CC(C)(C)NC(c2ccccc2)O1 (configuration not stated) , what is its reported T/C?
94 % of control

For CC(=O)C1=C(C)NC(C)=C(C(C)=O)C1c1cccc([N+](=O)[O-])c1 , what is its reported T/C?
94 % of control
